Entries and their growth inhibition values follow.
Assay: NCI Yeast Anticancer Drug Screen. Data for the mec2-1 strain (AID 157)
Conditions: S. cerevisiae mec2-1 strain, at 100.0 µM, hits give high values
Compounds without any hit were thinned out: in the full panel of roughly 79,000, 15% have a hit.
The figure you give is taken to be in %; do not add the unit.

compound | unitSymbol | growth inhibition
COC(=O)C1=C(C(=O)OC)CC(n2nnc(C(=O)OC)c2C(=O)OC)=CC1 | % | -9
N#[N+]c1c([O-])c2ccccc2c2ccccc12 | % | 97
CC1CCN(CCC(=O)c2ccc([N+](=O)[O-])cc2)CC1 | % | 14

Report growth inhibition for CC1(C)OC(=O)C(=Cc2ccc([N+](=O)[O-])s2)C(=O)O1
70

Provide only the value of recorded growth inhibition for Fc1ccc(Nc2ccc3ccccc3c2)cc1
93

Note down growth inhibition recorded for O=C1C=C(NCCc2cc(Br)c(O)c(Br)c2)C(=O)c2ncccc21
93

Tell me growth inhibition reported for O=C1CCC(Cc2ccccc2)CN1 (stereo not given)
3

Respond only with growth inhibition recorded for Cc1ccc(C)c(C(=N)c2ccccc2Cc2ccccc2)c1
97
